Assay: Plasma pharmacokinetics, Arm II (oral BID), phase 1 trial
Assay type: in vivo, human
Conditions: human, plasma, po, 60 mg, Arm II PO BID 60 mg, day 1, N=3
Reported endpoint: AUC(0-t) (ng·h/mL)

>>> df
                                smiles_data  unit_spec  quantitative_result
0  Nc1ncc(-c2cnn(CCO)c2)c2scc(-c3ccc(NC(=O)Nc4cccc(F)c4)cc3)c12    ng·h/mL                 5450

---

Assay: Plasma pharmacokinetics, Arm II (oral BID), phase 1 trial
Assay type: in vivo, human
Settings: human, plasma, po, 190 mg, Arm II PO BID 190 mg, day 15, N=5
Reported endpoint: AUC(0-t)

>>> df
                                smiles_data        result
0  Nc1ncc(-c2cnn(CCO)c2)c2scc(-c3ccc(NC(=O)Nc4cccc(F)c4)cc3)c12  6690 ng·h/mL

---

Test: Plasma pharmacokinetics, Arm III (i.v. infusion), phase 1 trial
Type: in vivo, human
Settings: human, plasma, iv, 8 mg, Arm III i.v. infusion 8 mg, day 15, N=3
Reported endpoint: clearance (mL/min)

                                   compound  quantitative_result
0  Nc1ncc(-c2cnn(CCO)c2)c2scc(-c3ccc(NC(=O)Nc4cccc(F)c4)cc3)c12 [ilorasertib, Ilorasertib]                 60.2

---

Assay: Plasma pharmacokinetics, Arm II (oral BID), phase 1 trial
Type: in vivo, human
Details: human, plasma, po, 130 mg, Arm II PO BID 130 mg, day 15, N=1; read-out: t1/2 (harmonic mean) (converted)
Reported endpoint: half-life (h)

>>> print(df.to_string())
                                smiles_data  reported_endpoint  unit_spec  quantitative_result
0  Nc1ncc(-c2cnn(CCO)c2)c2scc(-c3ccc(NC(=O)Nc4cccc(F)c4)cc3)c12          half-life          h                  7.5

---

Assay: Plasma pharmacokinetics, Arm III (i.v. infusion), phase 1 trial
Type: in vivo, human
Settings: human, plasma, iv, 16 mg, Arm III i.v. infusion 16 mg, day 15, N=1; read-out: t1/2 (harmonic mean) (converted)
Reported endpoint: half-life (h)

>>> df
                                smiles_data  quantitative_result
0  Nc1ncc(-c2cnn(CCO)c2)c2scc(-c3ccc(NC(=O)Nc4cccc(F)c4)cc3)c12                  9.6

---

Assay: Plasma pharmacokinetics, Arm III (i.v. infusion), phase 1 trial
Type: in vivo, human
Settings: human, plasma, iv, 32 mg, Arm III i.v. infusion 32 mg, day 15, N=2, mean (individual)
Reported endpoint: AUC(0-t) (ng·h/mL)

In [3]: df
Out[3]:
                                smiles_data  reported_endpoint  unit_spec  quantitative_result
0  Nc1ncc(-c2cnn(CCO)c2)c2scc(-c3ccc(NC(=O)Nc4cccc(F)c4)cc3)c12           AUC(0-t)    ng·h/mL                 7300

---

Test: Plasma pharmacokinetics, Arm II (oral BID), phase 1 trial
Assay type: in vivo, human
Settings: human, plasma, po, 230 mg, Arm II PO BID 230 mg, day 15, N=4; read-out: Tmax
Reported endpoint: Tmax (h)

                                smiles_data  unit_spec  quantitative_result
0  Nc1ncc(-c2cnn(CCO)c2)c2scc(-c3ccc(NC(=O)Nc4cccc(F)c4)cc3)c12          h                  9.5

---

Experiment: Plasma pharmacokinetics, Arm II (oral BID), phase 1 trial
Type: in vivo, human
Settings: human, plasma, po, 40 mg, Arm II PO BID 40 mg, day 15, N=3; read-out: Cmax
Reported endpoint: Cmax (ng/mL)

>>> df
                                   compound  quantitative_result
0  Nc1ncc(-c2cnn(CCO)c2)c2scc(-c3ccc(NC(=O)Nc4cccc(F)c4)cc3)c12 [ilorasertib, Ilorasertib]                  190

---

Assay: Plasma pharmacokinetics, Arm I (oral QD), phase 1 trial
Format: in vivo, human
Settings: human, in vivo, po, t1/2 (harmonic mean)
Reported endpoint: half-life (h)

>>> print(df.to_string())
                                smiles_data  reported_endpoint  quantitative_result
0  Nc1ncc(-c2cnn(CCO)c2)c2scc(-c3ccc(NC(=O)Nc4cccc(F)c4)cc3)c12          half-life                   14

---

Experiment: Plasma pharmacokinetics, Arm II (oral BID), phase 1 trial
Assay type: in vivo, human
Conditions: human, plasma, po, 230 mg, Arm II PO BID 230 mg, day 1, N=3; read-out: Tmax
Reported endpoint: Tmax (h)

In [3]: df
Out[3]:
                                smiles_data  quantitative_result
0  Nc1ncc(-c2cnn(CCO)c2)c2scc(-c3ccc(NC(=O)Nc4cccc(F)c4)cc3)c12                  8.7

---

Assay: Plasma pharmacokinetics, Arm II (oral BID), phase 1 trial
Type: in vivo, human
Conditions: human, plasma, po, 230 mg, Arm II PO BID 230 mg, day 15, N=4
Reported endpoint: AUC(0-t) (ng·h/mL)

In [3]: df
Out[3]:
                                smiles_data  unit_spec  quantitative_result
0  Nc1ncc(-c2cnn(CCO)c2)c2scc(-c3ccc(NC(=O)Nc4cccc(F)c4)cc3)c12    ng·h/mL                11200

---

Assay: Plasma pharmacokinetics, Arm II (oral BID), phase 1 trial
Assay type: in vivo, human
Conditions: human, plasma, po, 40 mg, Arm II PO BID 40 mg, day 1, N=3; read-out: Tmax
Procedure: Pharmacokinetics of ilorasertib were evaluated in the dose-escalation cohort on blood samples that were collected on cycle 1 days 1 and 15. Parameters determined: Cmax, time to Cmax (Tmax), terminal phase elimination half-life (t1/2), clearance, apparent oral clearance (CL/F), and area under the plasma concentration-time curve from time 0 to time of last measurable concentration (AUCt) and from time 0 to infinity (AUC∞). […]
Reported endpoint: Tmax (h)

In [3]: df
Out[3]:
                                smiles_data  reported_endpoint  quantitative_result
0  Nc1ncc(-c2cnn(CCO)c2)c2scc(-c3ccc(NC(=O)Nc4cccc(F)c4)cc3)c12               Tmax                  7.3

---

Assay: Plasma pharmacokinetics, Arm II (oral BID), phase 1 trial
Assay type: in vivo, human
Conditions: human, plasma, po, 90 mg, Arm II PO BID 90 mg, day 1, N=2, mean (individual); read-out: t1/2 (harmonic mean) (converted)
Reported endpoint: half-life (h)

                                   compound  unit_spec  quantitative_result
0  Nc1ncc(-c2cnn(CCO)c2)c2scc(-c3ccc(NC(=O)Nc4cccc(F)c4)cc3)c12 [ilorasertib, Ilorasertib]          h                 10.1

---

Assay: Plasma pharmacokinetics, Arm I (oral QD), phase 1 trial
Format: in vivo, human
Conditions: human, in vivo, po, 140 mg, Cmax
Reported endpoint: Cmax (µg/mL)

                                   molecule  quantitative_result
0  Nc1ncc(-c2cnn(CCO)c2)c2scc(-c3ccc(NC(=O)Nc4cccc(F)c4)cc3)c12 [ilorasertib, Ilorasertib]                 0.24

---

Assay: Plasma pharmacokinetics, Arm II (oral BID), phase 1 trial
Type: in vivo, human
Settings: human, plasma, po, 190 mg, Arm II PO BID 190 mg, day 1, N=7; read-out: Tmax
Reported endpoint: Tmax

                                smiles_data  reported_endpoint  result
0  Nc1ncc(-c2cnn(CCO)c2)c2scc(-c3ccc(NC(=O)Nc4cccc(F)c4)cc3)c12               Tmax  10.2 h

---

Assay: Plasma pharmacokinetics, Arm I (oral QD), phase 1 trial
Assay type: in vivo, human
Conditions: human, in vivo, po, 40 mg, Tmax
Reported endpoint: Tmax (h)

>>> print(df.to_string())
                                smiles_data  unit_spec  quantitative_result
0  Nc1ncc(-c2cnn(CCO)c2)c2scc(-c3ccc(NC(=O)Nc4cccc(F)c4)cc3)c12          h                    8

---

Assay: Plasma pharmacokinetics, Arm III (i.v. infusion), phase 1 trial
Assay type: in vivo, human
Settings: human, plasma, iv, Arm III i.v. infusion all doses, day 15, N=6; read-out: t1/2 (harmonic mean) (converted)
Reported endpoint: half-life (h)

                                smiles_data  unit_spec  quantitative_result
0  Nc1ncc(-c2cnn(CCO)c2)c2scc(-c3ccc(NC(=O)Nc4cccc(F)c4)cc3)c12          h                 12.1

The origin of these recorded values is paper PMC5931107.
